Tested on: MCF7
Assay Procedure: Phototoxicity against human MCF7 cells preincubated for 5 mins followed by compound washout and subsequent UV irradiation at 1.5 J/cm2 for 5 mins measured after 72 hrs by MTT assay
Assay type: functional, cell-based
Experimental Context: MCF7, light or radiation study
pEC50: −log10 of the molar value.
What pEC50 was measured for each of the following?

Request: Could you share which pEC50 value was measured for Cc1ccc2c(C)nc3c(nnn3-c3ccccc3)c2n1 ?
Response: < 4.30

Request: Can you share its pEC50? I mean this compound: Cc1nc2oc(-c3ccccc3)nc2c2[nH]c(=O)ccc12
Response: < 4.30

Request: Need pEC50, item COc1ccc(-c2nc3c(nc(C)c4ccc(C)nc43)o2)cc1
Response: < 4.30

Request: Any idea what pEC50 was measured for Cc1nc2c(nnn2-c2ccccc2)c2nc(-c3ccccc3)ccc12 ?
Response: < 4.30

Request: Returns the measured pEC50 for the input compound. Input: Cc1ccc2c(C)nc3oc(-c4ccccc4)nc3c2n1
Response: < 4.30

Request: Using the record for COc1cc(-c2nc3c(nc(C)c4ccc(C)nc43)o2)cc(OC)c1OC , report its pEC50.
Response: < 4.30

Request: # pEC50 lookup, item COc1cc(-c2nc3c(nc(C)c4ccc(-c5ccccc5)nc43)o2)cc(OC)c1OC
Response: 5.23

Request: What measured pEC50 goes with COc1ccc(-c2ccc3c(C)nc4c(nnn4-c4ccc(OC)cc4)c3n2)cc1 ?
Response: < 4.30

Request: Entry COc1ccc(-c2ccc3c(C)nc4c(nnn4-c4ccccc4)c3n2)cc1 has what pEC50?
Response: 4.47

Request: So what does the record say about pEC50 for COc1ccccc1-c1ccc2c(C)nc3oc(-c4cc(OC)c(OC)c(OC)c4)nc3c2n1 ?
Response: 5.45

Request: Recorded pEC50 for COc1ccc(-n2nnc3c4nc(C)ccc4c(C)nc32)cc1 , please?
Response: < 4.30

Request: # pEC50 lookup, item COc1ccc(-c2nc3c(nc(C)c4ccc(-c5ccccc5)nc43)o2)cc1
Response: 8.00

Request: Recorded pEC50 for COc1ccc(-n2nnc3c4[nH]c(=O)ccc4c(C)nc32)cc1 , please?
Response: < 4.30

Request: Give the measured pEC50 of COc1ccccc1-c1ccc2c(C)nc3oc(-c4ccccc4)nc3c2n1 .
Response: 5.88

Request: I would be grateful if you could share the reported pEC50 for COc1ccc(-n2nnc3c4nc(-c5ccccc5OC)ccc4c(C)nc32)cc1 .
Response: < 4.30

Request: Would you kindly share the measured pEC50 for COc1cc(-n2nnc3c4nc(-c5ccccc5)ccc4c(C)nc32)cc(OC)c1OC ?
Response: < 4.30

Request: Using the record for Cc1nc2c(nnn2-c2ccccc2)c2[nH]c(=O)ccc12 , report its pEC50.
Response: < 4.30

Request: // returns reported pEC50 for input COc1ccccc1-c1ccc2c(C)nc3c(nnn3-c3cc(OC)c(OC)c(OC)c3)c2n1
Response: < 4.30

###

Tested on: MCF-10A
Assay Procedure: Phototoxicity against human MCF10A cells preincubated for 5 mins followed by compound washout and subsequent UV irradiation at 1.5 J/cm2 for 5 mins measured after 72 hrs by MTT assay
Type: cell-based
Experimental Context: light or radiation study
Readout Label: EC50

Request: Fill in: EC50 of COc1ccc(-n2nnc3c4nc(-c5ccccc5OC)ccc4c(C)nc32)cc1 is ___
Response: > 50 µM

Request: Quick one: EC50 for Cc1ccc2c(C)nc3c(nnn3-c3ccccc3)c2n1 ?
Response: > 50 µM

Request: GET /values?readout=EC50&item= COc1ccccc1-c1ccc2c(C)nc3c(nnn3-c3cc(OC)c(OC)c(OC)c3)c2n1
Response: > 50 µM

Request: Fill blank: measured EC50 of the molecule COc1ccccc1-c1ccc2c(C)nc3oc(-c4ccccc4)nc3c2n1 is ____.
Response: 1.17 µM

Request: Which EC50 value belongs to Cc1nc2c(nnn2-c2ccccc2)c2[nH]c(=O)ccc12 ?
Response: > 50 µM

Request: So what's the measured EC50 for this one? COc1ccc(-c2nc3c(nc(C)c4ccc(C)nc43)o2)cc1
Response: > 50 µM

Request: Which EC50 is reported for this molecule? COc1ccc(-c2ccc3c(C)nc4c(nnn4-c4ccc(OC)cc4)c3n2)cc1
Response: > 50 µM

Request: EC50 for COc1cc(-c2nc3c(nc(C)c4ccc(C)nc43)o2)cc(OC)c1OC ?
Response: > 50 µM
